Data origin, for the record: ChEMBL document CHEMBL1201862

- Test system: KM12
- Procedure Details: NCI tumour cell line growth inhibition, 48 h
The source made the active and inactive calls. Cut-off read from the data, not from the text of the source: active = GI50 up to about 1.1 µM and inactive = higher.

Molecule	Measurement Target	GI50
CC(=O)Oc1ccc2cc(-c3ccc(OC(C)=O)c(OC(C)=O)c3)c(=O)oc2c1	KM12	32.8 µM (inactive)
CC(=O)NC1=C(C)C(=O)c2c(nc3n2CCC3O)C1=N (stereo not given)	KM12	18.5 µM (inactive)
CCCCn1c2c(n(CCCC)c1=[Se])-c1c(n(CCCC)c(=[Se])n1CCCC)S[Se][Se]S2	KM12	27.2 µM (inactive)
O=c1cc(-c2ccccc2)oc2cc(OCCCCCCCCCCOc3ccc4c(=O)cc(-c5ccccc5)oc4c3)ccc12	KM12	> 100 µM (inactive)
C[C@@H](CC(O)C(O)C(C)(C)O)C1CCC23CC12CCC1[C@@]2(C)CCC(=O)C(C)(C)C2CC(OC2OC(CO)C(O)C(O)C2O)[C@]13C (stereo not given in full)	KM12	> 10 µM (inactive)
